Examples of sequences with documented relative integration efficiency (log2) follow.
System: VchCAST RNA-guided transposition machinery (E. coli BL21(DE3) host, lacZ target)
Assay: relative integration efficiency (T-RL orientation) vs wild-type transposon end (log2 (normalized fold change)); transposon end mutated: right end (5 bp flank + 75 bp right end); higher = more efficient transposition
Measured Quantity: relative integration efficiency (log2)

Primary Sequence	Value Reported
ACATTTGTTGATACCACCATAAAATGGTAATTCCACCCCTACATTGATAATTATCACACCCAATTTAACTATAACGCTCTGATCATAGTCAGACCAACATTGCTACGACCCGTATTCGCACCGACAC	-4.47
ACATTTGTTGATACAACCAATTTTTGATAATTACACCCAATTTATGATAATTATCACACCCAATTTATGATATTGCCTCTGATCATAGTCAGACCAACATTGCTACGACCCGTATTCGCACCGACAC	-1.89
ACATTTGTTGATACAACCATAAAATGATAATTACCCCCATCAATTGATAATTATCCCACCCCATTTAACTATAACGCTCTGATCATAGTCAGACCAACATTGCTACGACCCGTATTCGCACCGACAC	-2.78
